System: wheat, winter
MEASUREMENT PROTOCOL: Test C postemergence
Type: in vivo, Triticum aestivum
PROTOCOL CONDITIONS: Postemergence, 31 g ai/ha; scale 0 to 100 (0 no effect, 100 complete control); 13 to 15 days
Would you mind telling me the reported Plant response rating, Wheat of each entry?
One number for each entry.

[
  {
    "LINE NOTATION": "Clc1cnc(Oc2cccc(Br)c2-n2cc(Br)cn2)nc1",
    "METRIC": "Plant response rating, Wheat",
    "VAL": 0
  }
]

Batch lookup, Plant response rating, Wheat per entry.
1. N#Cc1cccc(Oc2ncc(F)cn2)c1-n1cc(Br)cn1
2. CCOc1cnn(-c2c(C#N)cccc2Oc2ncc(Cl)cn2)c1
3. N#Cc1cccc(Oc2ncc(Br)cn2)c1-n1cc(I)cn1

Response:
1: 0; 2: 0; 3: 5

Batch lookup, Plant response rating, Wheat per entry.
1. FCc1cccc(Oc2ncc(Cl)cn2)c1-n1cc(Br)cn1
2. CCOc1cnn(-c2c(C#N)cccc2Oc2ncc(F)cn2)c1

Response:
0
0

---

Would you mind telling me the reported Foxtail, Green plant response rating of each entry?
System: green foxtail
MEASUREMENT PROTOCOL: Test E preemergence
Format: in vivo, Setaria viridis
PROTOCOL CONDITIONS: 62 g ai/ha, scale 0 to 100 (0 no effect, 100 complete control)

Below, each entry is followed by its recorded Foxtail, Green plant response rating result.
[
  {
    "LINE NOTATION": "FC(F)(F)c1cnn(-c2ccccc2Oc2ncc(Br)cn2)c1",
    "TARGET OR TEST SYSTEM": "green foxtail",
    "VAL": 65
  },
  {
    "LINE NOTATION": "N#Cc1cccc(Oc2ncc(Cl)cn2)c1-n1cc(C(F)(F)F)cn1",
    "TARGET OR TEST SYSTEM": "green foxtail",
    "VAL": 100
  }
]

Batch lookup, Foxtail, Green plant response rating per entry.
1. CCOc1cnn(-c2c(C#N)cccc2Oc2ncc(F)cn2)c1
2. N#Cc1cccc(Oc2ncc(F)cn2)c1-n1cc(I)cn1
3. N#Cc1cnn(-c2c(C#N)cccc2Oc2ncc(F)cn2)c1
4. FC(F)(F)c1cnn(-c2c(Cl)cccc2Oc2ncc(Cl)cn2)c1

Response:
1. 35
2. 15
3. 70
4. 70

---

Would you mind telling me the reported Plant response rating, Johnsongrass of each entry?
Test system: johnsongrass
MEASUREMENT PROTOCOL: Test C postemergence
Assay type: in vivo, Sorghum halepense
PROTOCOL CONDITIONS: Postemergence, 62 g ai/ha; scale 0 to 100 (0 no effect, 100 complete control)
Answers are plain numbers.

Batch lookup, Plant response rating, Johnsongrass per entry.
1. N#Cc1cn(-c2c(Br)cccc2Oc2ncc(Cl)cn2)nn1
2. Clc1cnc(Oc2cccc(Br)c2-n2cc(Br)nn2)nc1
3. CCOc1cnn(-c2c(C#N)cccc2Oc2ncc(F)cn2)c1
4. N#Cc1cccc(Oc2ncc(F)cn2)c1-n1cc(Br)cn1
5. FC(F)(F)c1cnn(-c2ccccc2Oc2ncc(Cl)cn2)c1

Response:
[0, 5, 5, 5, 5]

---

Test system: oilseed rape
MEASUREMENT PROTOCOL: Test C preemergence
Assay type: in vivo, Brassica napus
PROTOCOL CONDITIONS: 16 g ai/ha, preemergence; scale 0 to 100 (0 no effect, 100 complete control)
Would you mind telling me the reported Oilseed Rape plant response rating of each entry?
Give bare numbers.

[
  {
    "LINE NOTATION": "FCc1cccc(Oc2ncc(F)cn2)c1-n1cc(C(F)(F)F)cn1",
    "TARGET OR TEST SYSTEM": "oilseed rape",
    "Oilseed Rape plant response rating": 98
  }
]

Batch lookup, Oilseed Rape plant response rating per entry.
1. N#Cc1cnn(-c2c(C#N)cccc2Oc2ncc(F)cn2)c1
2. FCc1cccc(Oc2ncc(Cl)cn2)c1-n1cc(Br)cn1
3. CCOc1cnn(-c2c(C#N)cccc2Oc2ncc(Cl)cn2)c1
4. COc1cnn(-c2c(C#N)cccc2Oc2ncc(Cl)cn2)c1
5. N#Cc1cnn(-c2c(CF)cccc2Oc2ncc(F)cn2)c1

Response:
1. 60
2. 75
3. 80
4. 50
5. 95

---

Tested on: dayflower
MEASUREMENT PROTOCOL: Test E preemergence
Assay type: in vivo, Commelina virginica
PROTOCOL CONDITIONS: 125 g ai/ha, scale 0 to 100, 0 no effect, 100 complete control
METRIC: Plant response rating, Dayflower, VA
One number for each entry.

[
  {
    "COMPOUND": "FC(F)(F)c1cnn(-c2ccccc2Oc2ncc(Br)cn2)c1 [Compound 18]",
    "TARGET OR TEST SYSTEM": "dayflower",
    "METRIC": "Plant response rating, Dayflower, VA",
    "VAL": 95
  },
  {
    "COMPOUND": "N#Cc1cccc(Oc2ncc(Cl)cn2)c1-n1cc(C(F)(F)F)cn1 [Compound 58]",
    "TARGET OR TEST SYSTEM": "dayflower",
    "METRIC": "Plant response rating, Dayflower, VA",
    "VAL": 98
  },
  {
    "COMPOUND": "FC(F)(F)c1cnn(-c2c(Cl)cccc2Oc2ncc(Cl)cn2)c1 [Compound 167]",
    "TARGET OR TEST SYSTEM": "dayflower",
    "METRIC": "Plant response rating, Dayflower, VA",
    "VAL": 100
  }
]

Request: Dear colleague, I am looking for the recorded Plant response rating, Dayflower, VA of the following compound: Fc1cccc(Oc2ncc(Cl)cn2)c1-n1cc(I)cn1 [Compound 179]
Response: 60

---

Would you mind telling me the reported Plant response rating, Velvetleaf of each entry?
Tested on: velvetleaf
MEASUREMENT PROTOCOL: Test A preemergence
Type: in vivo, Abutilon theophrasti
PROTOCOL CONDITIONS: 125 g ai/ha, 0 to 100 scale where 0 is no effect and 100 is complete control
One number for each entry.

Below, each entry is followed by its recorded Plant response rating, Velvetleaf result.
[
  {
    "COMPOUND": "CC(=O)c1cccc(Oc2ncc(Cl)cn2)c1-n1cc(Br)cn1 [Compound 96]",
    "TARGET OR TEST SYSTEM": "velvetleaf",
    "Plant response rating, Velvetleaf": 0
  },
  {
    "COMPOUND": "Cc1ccn(-c2ccccc2Oc2ncc(Cl)cn2)n1 [Compound 36]",
    "TARGET OR TEST SYSTEM": "velvetleaf",
    "Plant response rating, Velvetleaf": 0
  },
  {
    "COMPOUND": "Cc1cnn(-c2ccccc2Oc2ncc(Cl)cn2)c1 [Compound 23]",
    "TARGET OR TEST SYSTEM": "velvetleaf",
    "Plant response rating, Velvetleaf": 90
  },
  {
    "COMPOUND": "FC(F)c1cnn(-c2ccccc2Oc2ncc(Br)cn2)c1 [Compound 81]",
    "TARGET OR TEST SYSTEM": "velvetleaf",
    "Plant response rating, Velvetleaf": 50
  },
  {
    "COMPOUND": "FC(F)(F)c1cccc(Oc2ncc(Cl)cn2)c1-n1cc(Br)cn1 [Compound 64]",
    "TARGET OR TEST SYSTEM": "velvetleaf",
    "Plant response rating, Velvetleaf": 40
  }
]

Batch lookup, Plant response rating, Velvetleaf per entry.
1. Brc1cnc(Oc2ccccc2-n2cc(Br)c(Br)n2)nc1 [Compound 24]
2. N#Cc1cccc(Oc2ncc(Cl)cn2)c1-n1cc(C(F)(F)F)cn1 [Compound 58]
3. Fc1cnc(Oc2cccc(C(F)F)c2-n2cc(Br)cn2)nc1 [Compound 112]
4. FC(F)(F)c1cnn(-c2ccccc2Oc2ncc(Br)cn2)c1 [Compound 18]

Response:
1. 0
2. 90
3. 90
4. 90

Request: Dear colleague, I am looking for the recorded Plant response rating, Velvetleaf of the following compound: CC(C)(C)c1ccn(-c2ccccc2Oc2ncc(Br)cn2)n1 [Compound 30]
Response: 10

---

System: morningglory
MEASUREMENT PROTOCOL: Test A postemergence
Format: in vivo, Ipomoea spp.
PROTOCOL CONDITIONS: 500 g ai/ha, 0 to 100 scale, 0 no effect, 100 complete control
METRIC: Plant response rating, Morningglory
Answers are plain numbers.

Below, each entry is followed by its recorded Plant response rating, Morningglory result.
[
  {
    "LINE NOTATION": "FC(F)(F)c1ccn(-c2ccccc2Oc2ncc(Br)cn2)n1",
    "METRIC": "Plant response rating, Morningglory",
    "VAL": 20
  },
  {
    "LINE NOTATION": "CC(C)(C)c1ccn(-c2ccccc2Oc2ncc(Br)cn2)n1",
    "METRIC": "Plant response rating, Morningglory",
    "VAL": 0
  },
  {
    "LINE NOTATION": "FC(F)(F)c1cnc(Oc2ccccc2-n2cc(Cl)cn2)nc1",
    "METRIC": "Plant response rating, Morningglory",
    "VAL": 70
  }
]

Batch lookup, Plant response rating, Morningglory per entry.
1. Clc1cnc(Oc2ccccc2-n2cc(Cl)cn2)nc1
2. Cc1ccc(Oc2ncc(Cl)cn2)c(-n2cc(Br)cn2)c1

Response:
1: 70; 2: 100
